- TARGET_ENTITY: human serotonin transporter (Homo sapiens, UniProt P31645)
- Construct: expressed in transfected cells
- Sequence (P31645 whole entry): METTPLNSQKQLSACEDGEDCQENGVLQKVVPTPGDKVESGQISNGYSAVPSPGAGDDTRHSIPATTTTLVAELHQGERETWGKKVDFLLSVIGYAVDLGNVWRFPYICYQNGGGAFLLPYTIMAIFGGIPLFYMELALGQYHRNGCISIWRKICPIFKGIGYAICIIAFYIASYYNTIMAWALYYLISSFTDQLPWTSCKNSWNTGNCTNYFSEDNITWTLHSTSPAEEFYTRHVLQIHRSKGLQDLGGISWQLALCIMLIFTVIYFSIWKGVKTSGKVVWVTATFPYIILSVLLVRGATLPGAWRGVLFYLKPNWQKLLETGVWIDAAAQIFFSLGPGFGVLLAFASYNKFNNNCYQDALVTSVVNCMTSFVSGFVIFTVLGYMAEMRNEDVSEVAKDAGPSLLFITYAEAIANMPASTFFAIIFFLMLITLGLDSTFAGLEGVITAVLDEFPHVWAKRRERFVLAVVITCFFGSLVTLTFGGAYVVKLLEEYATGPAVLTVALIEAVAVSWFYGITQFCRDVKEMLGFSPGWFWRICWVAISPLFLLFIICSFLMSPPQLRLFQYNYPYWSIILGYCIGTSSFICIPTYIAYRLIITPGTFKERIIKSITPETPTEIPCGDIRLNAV
- ASSAY_PROCEDURE: Inhibitory action on human serotonin transporter ([3H]-5-hydroxytryptamine uptake in CHO cells)
- Assay type: cell-based
- PARTICULARS: CHO, compound 1 μM; relative to inhibitory activity of 10 μM Paroxetine as 100%; read-out: inhibitory rate (%)
Counter-ions that a name gives are not always drawn.

MOLECULE: O=C(NC[C@@H]1CNCCO[C@H]1c1ccc(Cl)c(Cl)c1)c1cc(-c2noc(=O)[nH]2)ccn1 [Example 146, monohydrochloride]
inhibition at 1 µM (%): 100
//
MOLECULE: CC(=O)NC[C@H]1OCCNC[C@H]1c1ccc(Cl)c(Cl)c1 [Example 453, monohydrochloride]
inhibition at 1 µM (%): 41
//
MOLECULE: OC[C@@H]1OCCNC[C@H]1c1ccc(Cl)c(Cl)c1 [Example 488, monohydrochloride]
inhibition at 1 µM (%): 61
//
MOLECULE: CCNC(=O)NC[C@@H]1CNCCO[C@@H]1c1ccc(Cl)c(Cl)c1 (racemic) [Example 52, monohydrochloride]
inhibition at 1 µM (%): 99
